SYSTEM: mGluR5 receptors (Rattus norvegicus, UniProt P31424)
Construct: Primary astrocyte cultures are prepared from cortices of newborn rats; endogenous in cells; host or cells: primary rat cortical astrocytes (Sprague-Dawley pups)
Sequence (P31424 21-1203): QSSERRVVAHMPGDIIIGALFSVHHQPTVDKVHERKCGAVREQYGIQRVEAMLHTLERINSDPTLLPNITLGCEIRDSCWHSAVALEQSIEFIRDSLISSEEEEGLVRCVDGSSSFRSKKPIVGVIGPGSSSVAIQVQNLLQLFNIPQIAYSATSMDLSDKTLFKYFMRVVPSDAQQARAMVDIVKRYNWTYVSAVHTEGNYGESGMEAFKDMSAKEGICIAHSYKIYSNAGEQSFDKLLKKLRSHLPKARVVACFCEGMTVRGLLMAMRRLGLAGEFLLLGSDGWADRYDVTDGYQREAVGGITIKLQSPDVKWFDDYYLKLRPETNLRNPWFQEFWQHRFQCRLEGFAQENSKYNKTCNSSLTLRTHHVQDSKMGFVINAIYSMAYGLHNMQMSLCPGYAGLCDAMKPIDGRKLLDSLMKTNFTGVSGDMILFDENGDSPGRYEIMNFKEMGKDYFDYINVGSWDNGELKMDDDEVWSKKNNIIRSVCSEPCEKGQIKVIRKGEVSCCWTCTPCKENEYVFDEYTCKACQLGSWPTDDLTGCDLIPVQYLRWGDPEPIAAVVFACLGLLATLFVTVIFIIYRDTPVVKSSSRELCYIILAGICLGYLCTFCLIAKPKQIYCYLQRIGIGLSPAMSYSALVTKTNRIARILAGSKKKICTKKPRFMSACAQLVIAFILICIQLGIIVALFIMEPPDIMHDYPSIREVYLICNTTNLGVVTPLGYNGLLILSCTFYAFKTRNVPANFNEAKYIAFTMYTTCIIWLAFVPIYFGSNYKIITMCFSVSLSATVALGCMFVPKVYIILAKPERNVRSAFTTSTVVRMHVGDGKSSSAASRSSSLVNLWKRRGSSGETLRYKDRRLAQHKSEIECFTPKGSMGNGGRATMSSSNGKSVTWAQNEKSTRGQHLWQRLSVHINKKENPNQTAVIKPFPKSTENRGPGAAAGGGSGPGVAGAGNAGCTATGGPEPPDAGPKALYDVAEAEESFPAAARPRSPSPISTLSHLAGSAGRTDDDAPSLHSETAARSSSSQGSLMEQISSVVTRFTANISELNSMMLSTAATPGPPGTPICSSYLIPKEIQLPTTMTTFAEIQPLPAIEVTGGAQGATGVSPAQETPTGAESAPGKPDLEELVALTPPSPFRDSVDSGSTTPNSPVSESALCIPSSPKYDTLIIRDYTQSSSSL
EXPERIMENT DESCRIPTION: Cytosolic calcium studies with cultured rat astrocytes
Assay type: cell-based
pEC50: −log10 of the molar value.
Rule: y for pEC50 not less than 7, n for anything less.

Use these answered entries as a reference point.
SMILES INPUT: Fc1cccc(C#Cc2cnc3ncnn3c2)c1
SYSTEM: mGluR5 receptors (Rattus norvegicus, UniProt P31424)
ASSIGNED LABEL: n
//
SMILES INPUT: Fc1cccc(C#Cc2cnc3ncsc3c2)c1
SYSTEM: mGluR5 receptors (Rattus norvegicus, UniProt P31424)
ASSIGNED LABEL: y
//
SMILES INPUT: Fc1ccccc1C#Cc1cnc2ncsc2c1
SYSTEM: mGluR5 receptors (Rattus norvegicus, UniProt P31424)
ASSIGNED LABEL: y

Q. Identify whether the reported pEC50 of the following compound is 7 or greater: Cc1cccc(C#Cc2cnc3ncsc3c2)c1
A. y

Q. Please tell me: is the compound Fc1ccc(C#Cc2ccc3ncnn3c2)cc1 at or over 7 in terms of pEC50?
A. n

Q. Is it the case that Fc1ccccc1C#Cc1cnc2nccnc2c1 has pEC50 reaching or exceeding 7?
A. n

Q. # check: pEC50 of Cc1ccccc1C#Cc1cnc2ncsc2c1 is greater than or equal to 7
A. n

Q. Test whether the compound Fc1ccc(C#Cc2cnc3cccnc3c2)cc1 records pEC50 of 7 or higher.
A. y

###

SYSTEM: mGluR5 receptors (Rattus norvegicus)
Construct: Primary astrocyte cultures are prepared from cortices of newborn rats; endogenous in cells
EXPERIMENT DESCRIPTION: Cytosolic calcium studies with cultured rat astrocytes
Criterion: EC50 strictly less than 500 nM. Met: rule met. Not met: rule not met.

Some entries whose results are on file:
MOLECULE: O=C(c1nc2ncc(C#CC3=CCCCC3)cc2o1)N1CCCCC1
ASSIGNED LABEL: rule met

MOLECULE: Fc1ccc(C#Cc2cnc3ncsc3c2)cc1
ASSIGNED LABEL: rule met

MOLECULE: O=C(c1nc2ccc(C#Cc3ccccc3F)cn2n1)N1CCCCC1
ASSIGNED LABEL: rule not met

MOLECULE: O=C(c1cc2ccc(C#Cc3ccccc3)cn2n1)N1CCCCC1
ASSIGNED LABEL: rule met

MOLECULE: C(#Cc1cnc2nccnc2c1)c1ccccc1 [Example 39, 7-Phenylethynyl-pyrido[2,3-b]pyrazine]
ASSIGNED LABEL: rule met

MOLECULE: Cc1ccccc1C#Cc1cnc2cccnc2c1 [Example 94, 3-(o-Tolylethynyl)-[1,5]naphthyridine]
ASSIGNED LABEL: rule met

Q. Identify whether the molecule C(#Cc1cnc2ccnn2c1)C1=CCSCC1 records EC50 below 500 nM.
A. rule met

Q. Please check: EC50 for Oc1ccc(C#Cc2cnc3nccnc3c2)cc1 , strictly under 500 nM or not?
A. rule not met

Q. Lab note: EC50 threshold 500 nM. Does this molecule come in strictly under it? C(#Cc1cnc2nccnc2c1)C1=CCCCC1
A. rule not met

###

compounds and their reported pEC50
SYSTEM: human metabotropic glutamate receptor mGluR5 (Homo sapiens, UniProt P41594)
Sequence (P41594 21-1212): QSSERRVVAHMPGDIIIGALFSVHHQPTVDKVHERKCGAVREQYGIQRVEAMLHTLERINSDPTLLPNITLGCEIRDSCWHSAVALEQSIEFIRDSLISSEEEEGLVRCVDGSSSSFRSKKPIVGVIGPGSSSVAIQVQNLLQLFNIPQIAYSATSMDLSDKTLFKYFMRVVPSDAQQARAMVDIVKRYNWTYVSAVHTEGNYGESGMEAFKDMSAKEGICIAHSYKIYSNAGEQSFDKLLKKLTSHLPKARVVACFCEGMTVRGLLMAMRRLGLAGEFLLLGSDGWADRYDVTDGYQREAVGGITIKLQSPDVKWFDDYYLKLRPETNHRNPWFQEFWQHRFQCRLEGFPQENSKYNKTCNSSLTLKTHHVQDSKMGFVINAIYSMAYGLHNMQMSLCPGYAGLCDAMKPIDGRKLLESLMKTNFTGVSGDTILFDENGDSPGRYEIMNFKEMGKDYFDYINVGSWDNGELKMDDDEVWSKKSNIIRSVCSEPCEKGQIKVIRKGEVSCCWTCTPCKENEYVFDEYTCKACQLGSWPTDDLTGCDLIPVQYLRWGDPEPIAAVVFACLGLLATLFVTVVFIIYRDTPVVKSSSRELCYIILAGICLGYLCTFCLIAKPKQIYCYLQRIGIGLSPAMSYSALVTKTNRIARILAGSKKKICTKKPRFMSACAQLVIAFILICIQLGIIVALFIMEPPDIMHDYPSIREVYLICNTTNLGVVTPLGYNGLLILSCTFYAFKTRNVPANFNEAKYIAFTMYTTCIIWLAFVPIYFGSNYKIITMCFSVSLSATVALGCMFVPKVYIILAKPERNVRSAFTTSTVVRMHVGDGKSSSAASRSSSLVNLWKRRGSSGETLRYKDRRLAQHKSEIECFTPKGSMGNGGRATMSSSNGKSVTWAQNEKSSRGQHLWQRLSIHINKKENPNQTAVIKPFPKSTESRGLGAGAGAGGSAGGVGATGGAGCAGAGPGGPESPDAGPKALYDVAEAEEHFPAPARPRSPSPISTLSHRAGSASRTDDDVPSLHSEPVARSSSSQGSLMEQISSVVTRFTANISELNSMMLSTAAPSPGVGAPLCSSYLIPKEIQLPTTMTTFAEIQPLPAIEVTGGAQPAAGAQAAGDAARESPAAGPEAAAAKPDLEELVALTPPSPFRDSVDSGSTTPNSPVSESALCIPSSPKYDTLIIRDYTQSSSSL
EXPERIMENT DESCRIPTION: Cytosolic calcium studies with stably transfected cells (CHO-K1)
Worth noting: pEC50 values are minus log10 of concentrations stated in mol/L.

Memo: O=C(c1cc2ncc(C#Cc3ccccc3)cn2n1)N1CCCC1 , reported pEC50: 6.21

Value of pEC50 reported for the compound Fc1cccc(C#Cc2cnc3ccnn3c2)c1 is 7.68

Just so you know, measured pEC50 for Fc1cc(F)cc(C#Cc2cnc3ncsc3c2)c1 came out at 6.18

Measured pEC50, C(#Cc1cnc2cccnc2c1)c1cccnc1 : 6.33

Cc1cccc(C#Cc2cnc3ncsc3c2)c1 has a reported pEC50 of 7.70

Quick note, pEC50 for O=C(c1nc2ncc(C#CC3=CCCCC3)cc2o1)N1CCCCC1 landed at 6.48
